# assay.target: rAde1R (Rattus norvegicus, UniProt Q7TN49)
# Construct: expressed in transfected cells; host or cells: 1321N1 human astrocytoma cells
# Sequence (Q7TN49 1-304): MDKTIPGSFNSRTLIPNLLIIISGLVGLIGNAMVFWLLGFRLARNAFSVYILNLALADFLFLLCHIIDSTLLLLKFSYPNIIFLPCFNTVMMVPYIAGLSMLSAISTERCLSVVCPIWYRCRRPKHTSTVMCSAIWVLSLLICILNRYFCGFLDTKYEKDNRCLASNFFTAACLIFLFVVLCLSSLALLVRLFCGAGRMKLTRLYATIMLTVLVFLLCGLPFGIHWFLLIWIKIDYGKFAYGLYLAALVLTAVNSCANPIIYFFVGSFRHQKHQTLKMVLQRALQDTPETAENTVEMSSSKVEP
# assay.info: cAMP-dependent luciferase assay, inhibition of isoproterenol-stimulated cAMP accumulation
# Assay type: cell-based
# measurement.conditions: in the absence of compound 9
# Description: 1321N1 cells stably expressing the rAde1R were cultured in DMEM supplemented with 10% (v/v) FCS, L-glutamine (2 mM), penicillin (100 U/ml), streptomycin (100 U/ml) and 400 μg/ml G 418 at 37° C. under a humidified atmosphere containing 5% CO2. […] Reporter cells were seeded at a density of […] cells/well in a 24-well plate 18-20 hr prior to assay. […] Luminescence was determined using a NOVOstar microplate reader (BMG labtech); each well was counted for 2 s at 20° C.
readout.kind: EC50 (nM)
Reply with just the number (in nM).

Q. Requested read-out: EC50. Entry: Nc1ncnc2nc[nH]c12 [adenine]
A. 2.24

====

# assay.target: Rat adenine receptor (Rattus norvegicus, UniProt Q7TN49)
# Construct: 50 μg of rat cortical membrane preparations; from tissue; host or cells: rat brain cortex membranes
# assay.info: Radioligand binding assay, [3H]adenine competition, rat cortical membrane preparations
# measurement.conditions: rat cortex membranes, vs. 10 nM [3H]adenine, mean ± SEM
# Method: Competition assays with [8-^3H]adenine (27 Ci/mmol; GE Healthcare) were carried out as described previously (Gorzalka et al., Mol. Pharmacol. 2005, 67, 955-964). […] Inhibition curves were determined using 6 to 9 different concentrations of selected adenine derivative. […] Nonspecific binding was determined by using 100 μM adenine. […] Filter-bound radioactivity was measured by liquid scintillation counting. […]
Structures can show the parent of a compound that is named as a salt.
readout.kind: Ki (µM)
Reply with just the number (in µM).

CCCNCCC(=O)Nc1ncnc2[nH]cnc12 [Example 11, dihydrochloride] ... 1.29
CNCCC(=O)Nc1ncnc2[nH]cnc12 [Example 9, dihydrochloride] ... 0.292
CN(CCC(=O)Nc1ncnc2[nH]cnc12)C(=O)OC(C)(C)C [Example 1] ... 0.949
Cl.NCCCC(=O)Nc1ncnc2[nH]cnc12 [Example 15, hydrochloride] ... 0.0805
CCN(CCC(=O)Nc1ncnc2[nH]cnc12)C(=O)OC(C)(C)C [Example 2] ... 2.93

Here is the next item to consider.
Q. Requested read-out: Ki. Entry: CCCN(CCC(=O)Nc1ncnc2[nH]cnc12)C(=O)OC(C)(C)C [Example 3]
A. 11.8

====

# assay.target: rAde1R (Rattus norvegicus, UniProt Q7TN49)
# Construct: expressed in transfected cells; host or cells: 1321N1 human astrocytoma cells
# assay.info: cAMP-dependent luciferase assay, inhibition of isoproterenol-stimulated cAMP accumulation
# Format: cell-based
# measurement.conditions: in the presence of compound 9 (10 μM)
readout.kind: pEC50
The read-out pEC50 is expressed as -log10 of concentration in moles per litre.

Q. Short answer please: pEC50, rAde1R (Rattus norvegicus, UniProt Q7TN49), entry `Nc1ncnc2nc[nH]c12`
A. 6.94

====

Counter-ions that a name gives are not always drawn.
Classification field: y = melting point at or over 200 °C; n = melting point under 200 °C.

Previously resolved entries follow.
CC(C)(C)OC(=O)NCCCC(=O)Nc1ncnc2[nH]cnc12 [Example 8] ... y
CC(C)(C)OC(=O)NCCC(=O)Nc1ncnc2[nH]cnc12 [Example 7] ... n
CCCNCCC(=O)Nc1ncnc2[nH]cnc12 (as salt: hydrochloride) [Example 11, dihydrochloride] ... n

From here, focus on the item given below.
Q. Quick check, melting point >= 200 °C? CC(C)(C)OC(=O)N(CCC(=O)Nc1ncnc2[nH]cnc12)CCc1ccccc1 [Example 6]
A. n

====

# assay.target: Rat adenine receptor (Rattus norvegicus)
# Construct: 50 μg of rat cortical membrane preparations; from tissue; host or cells: rat brain cortex membranes
# assay.info: Radioligand binding assay, [3H]adenine competition, rat cortical membrane preparations
# measurement.conditions: rat cortex membranes, vs. 10 nM [3H]adenine, mean ± SEM
Where a name gives a salt, the structure may show the parent alone.
Entries are grouped by Ki into these classes: band 1 (below 0.5 µM), band 2 (0.5 µM to below 3 µM), band 3 (3 µM or more)

CC(C)(C)OC(=O)NCCC(=O)Nc1ncnc2[nH]cnc12 [Example 7] ... band 1
O=C(CCNCc1ccccc1)Nc1ncnc2[nH]cnc12 [Example 12, dihydrochloride] ... band 2
CC(C)(C)OC(=O)N(CCC(=O)Nc1ncnc2[nH]cnc12)Cc1ccccc1 [Example 5] ... band 3
O=C(CCNCCc1ccccc1)Nc1ncnc2[nH]cnc12 [Example 13, dihydrochloride] ... band 2
CCCCCCN(CCC(=O)Nc1ncnc2[nH]cnc12)C(=O)OC(C)(C)C [Example 4] ... band 2

Q. Which class is correct for the following compound? Cl.NCCC(=O)Nc1ncnc2[nH]cnc12 [Example 14, hydrochloride]
A. band 1

Q. Also CC(C)(C)OC(=O)NCCCC(=O)Nc1ncnc2[nH]cnc12 [Example 8] ?
A. band 3

Q. Also CC(C)(C)OC(=O)N(CCC(=O)Nc1ncnc2[nH]cnc12)CCc1ccccc1 [Example 6] ?
A. band 3

====

Structures can show the parent of a compound that is named as a salt.
melting point strictly under 200 °C means class 1; at 200 °C or over means class 0.

Previously resolved entries follow.
CNCCC(=O)Nc1ncnc2[nH]cnc12 (as salt: hydrochloride) [Example 9, dihydrochloride] ... class 0
CCNCCC(=O)Nc1ncnc2[nH]cnc12 (as salt: hydrochloride) [Example 10, dihydrochloride] ... class 0

From here, focus on the item given below.
Q. Quick check: does CCCCCCN(CCC(=O)Nc1ncnc2[nH]cnc12)C(=O)OC(C)(C)C [Example 4] have melting point under 200 °C?
A. class 1

====

Structures can show the parent of a compound that is named as a salt.
readout.kind: melting point (°C)
Reply with just the number (in °C).

Some entries whose results are on file:
CCCN(CCC(=O)Nc1ncnc2[nH]cnc12)C(=O)OC(C)(C)C [Example 3] ... 205
O=C(CCNCCc1ccccc1)Nc1ncnc2[nH]cnc12 (as salt: hydrochloride) [Example 13, dihydrochloride] ... 196

Here is the next item to consider.
Q. Requested read-out: melting point. Entry: CN(CCC(=O)Nc1ncnc2[nH]cnc12)C(=O)OC(C)(C)C [Example 1]
A. 205

====

Counter-ions that a name gives are not always drawn.
readout.kind: melting point (°C)
Reply with just the number (in °C).

CC(C)(C)OC(=O)N(CCC(=O)Nc1ncnc2[nH]cnc12)Cc1ccccc1 ... 202

Q. Requested read-out: melting point. Entry: `CCN(CCC(=O)Nc1ncnc2[nH]cnc12)C(=O)OC(C)(C)C`
A. 198

Q. Also O=C(CCNCc1ccccc1)Nc1ncnc2[nH]cnc12 (as salt: hydrochloride) [Example 12, dihydrochloride] ?
A. 197

Q. Also `Cl.NCCCC(=O)Nc1ncnc2[nH]cnc12` ?
A. 199

Q. Also `Cl.NCCC(=O)Nc1ncnc2[nH]cnc12` ?
A. 204
